Molecular target: CXCR4 (Homo sapiens)
Sequence (P61073 whole entry): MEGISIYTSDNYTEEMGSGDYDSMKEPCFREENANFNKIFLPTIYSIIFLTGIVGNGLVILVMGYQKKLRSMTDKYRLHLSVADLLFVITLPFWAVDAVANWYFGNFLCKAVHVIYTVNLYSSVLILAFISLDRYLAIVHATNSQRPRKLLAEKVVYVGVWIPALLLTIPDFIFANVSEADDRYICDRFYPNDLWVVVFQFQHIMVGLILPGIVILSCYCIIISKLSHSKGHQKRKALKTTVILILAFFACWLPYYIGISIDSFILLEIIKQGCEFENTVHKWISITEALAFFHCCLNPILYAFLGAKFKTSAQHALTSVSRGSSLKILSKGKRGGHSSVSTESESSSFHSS
Experiment: Ca2+ mobilization in CXCR4 expressing HEK293 cells (indo-1)
Format: cell-based
Set-up: expressed in transfected cells
Ends that are not written are not given here.

{"monomer_sequence": "LVRYTKKVPQVSTPTL [ALB408-423, LVRYTKKVPQVSTPTL]", "unit_abbrev": "µM", "Ki": 46.4}

* * *

Test system: X4 tropic HIV-1 NL4-3
Details: TZM-bl cells
Ends that are not written are not given here.
readout_name: antiviral activity against X4 tropic HIV-1 NL4-3 (words, SAR study)

{"substance": "LVRYTKK [ALB408-414, LVRYTKK]", "recorded_measurement": "remained active"}
{"substance": "ALB408-416: SEQ ID No 15; C terminal truncation of ALB408-423, sequence not printed in Table 1 (LVRYTKKVP; listed as Homo sapiens)", "recorded_measurement": "remained active"}
{"substance": "GVRYTKKVPQVS [ALB408G-419, GVRYTKKVPQVS]", "recorded_measurement": "inactive peptides"}
{"substance": "LVRYTKKVPQV [ALB408-418, LVRYTKKVPQV]", "recorded_measurement": "remained active"}
{"substance": "AVRYTKKVPQVS [ALB408A-419, AVRYTKKVPQVS]", "recorded_measurement": "inactive peptides"}
